target: L-aspartate-α-decarboxylase (Escherichia coli, UniProt P0A790); construct: expressed in transfected cells; host or cells: E. coli W3110 transformed with pIF309 = strain NS3291 (ATCC 98675), whole cells; assay: Activity towards D/L-glutamate and D/L-alanine, D/L-aspartate as control (Example 8); format: biochemical, E. coli K12; details: 24 hr; racemate substrate, pH 7.0
Catalogue of percent remaining readings, one per entry.
Expressed in %, but write only the number.

Just so you know, measured percent remaining for "C[C@H](N)C(=O)O" came out at 94.824

Just so you know, measured percent remaining for "N[C@H](CCC(=O)O)C(=O)O" came out at 99.694

More entries:
Just so you know, measured percent remaining for "N[C@H](CC(=O)O)C(=O)O" came out at 99.498

Just so you know, measured percent remaining for "N[C@@H](CC(=O)O)C(=O)O" came out at 35.323

Just so you know, measured percent remaining for "C[C@@H](N)C(=O)O" came out at 93.434

Just so you know, measured percent remaining for "N[C@@H](CCC(=O)O)C(=O)O" came out at 96.082
